Test system: Streptococcus pyogenes
methodDescription: Effective dose against mice infected with streptococcus pyogenes after peroral administration (in vivo)
Assay type: functional
testContext: in Mus musculus, po
One threshold, 20 mg/kg, splits the recorded ED50 values: lower ones are MET, equal or higher ones are NOT MET.

| molecule | experimentalSystem | className |
| --- | --- | --- |
| CC[C@H]1OC(=O)[C@H](C)[C@@H](O[C@H]2C[C@@](C)(OC)[C@@H](O)[C@H](C)O2)[C@H](C)[C@@H](O[C@@H]2O[C@H](C)C[C@H](N(C)C)[C@H]2O)[C@](C)(O)C[C@@H](C)C(=O)[C@H](C)[C@@H](O)[C@]1(C)O | Streptococcus pyogenes | NOT MET |
| CC[C@H]1OC(=O)[C@H](C)[C@@H](OC2CC(C)(OC)C(O)C(C)O2)[C@H](C)[C@@H](OC2OC(C)CC(N(C)C)C2O)[C@](C)(O)C[C@@H](C)[C@H](NCCCOC)[C@H](C)[C@@H](O)[C@]1(C)O (some centres not stated) | Streptococcus pyogenes | MET |
| CCCCCCN[C@@H]1[C@H](C)[C@@H](O)[C@](C)(O)[C@@H](CC)OC(=O)[C@H](C)[C@@H](OC2CC(C)(OC)C(O)C(C)O2)[C@H](C)[C@@H](OC2OC(C)CC(N(C)C)C2O)[C@](C)(O)C[C@H]1C (some centres not stated) | Streptococcus pyogenes | MET |
| CC[C@H]1OC(=O)[C@H](C)[C@@H](OC2CC(C)(OC)C(O)C(C)O2)[C@H](C)[C@@H](OC2OC(C)CC(N(C)C)C2O)[C@](C)(O)C[C@@H](C)[C@@H]2NC(COCCOC)O[C@H]([C@H]2C)[C@]1(C)O (some centres not stated) | Streptococcus pyogenes | NOT MET |
| CC[C@H]1OC(=O)[C@H](C)[C@@H](OC2CC(C)(OC)C(O)C(C)O2)[C@H](C)[C@@H](OC2OC(C)CC(N(C)C)C2O)[C@](C)(O)C[C@@H](C)[C@H](NC2CCCC2)[C@H](C)[C@@H](O)[C@]1(C)O (some centres not stated) | Streptococcus pyogenes | MET |

[ask] Is the reported ED50 for CCCN1CO[C@@H]2[C@@H](C)[C@@H]1[C@H](C)C[C@@](C)(O)[C@H](OC1OC(C)CC(N(C)C)C1O)[C@@H](C)[C@H](OC1CC(C)(OC)C(O)C(C)O1)[C@@H](C)C(=O)O[C@H](CC)[C@@]2(C)O (some centres not stated) strictly below 20 mg/kg?
[reply] MET

[ask] Given CC[C@H]1OC(=O)[C@H](C)[C@@H](OC2CC(C)(OC)C(O)C(C)O2)[C@H](C)[C@@H](OC2OC(C)CC(N(C)C)C2O)[C@](C)(O)C[C@@H](C)[C@H](NCCC(C)CCCC(C)(C)OC)[C@H](C)[C@@H](O)[C@]1(C)O (some centres not stated) , is recorded ED50 strictly lower than 20 mg/kg?
[reply] NOT MET

[ask] Does the reported ED50 of CCCCCCCN[C@@H]1[C@H](C)[C@@H](O)[C@](C)(O)[C@@H](CC)OC(=O)[C@H](C)[C@@H](OC2CC(C)(OC)C(O)C(C)O2)[C@H](C)[C@@H](OC2OC(C)CC(N(C)C)C2O)[C@](C)(O)C[C@H]1C (some centres not stated) stay below 20 mg/kg?
[reply] NOT MET

###

Recorded MIC for the following compounds
Test system: Streptococcus pneumoniae
methodDescription: MIC value measured against streptococcus pneumoniae Park1
Type: functional
Note: unit µg/mL is implicit; provide only the numeric part.

| compound | value |
| --- | --- |
| CC[C@H]1OC(=O)[C@H](C)[C@@H](OC2CC(C)(OC)C(O)C(C)O2)[C@H](C)[C@@H](OC2OC(C)CC(N(C)C)C2O)[C@](C)(O)C[C@@H](C)/C(=N\O)[C@H](C)[C@@H](O)[C@]1(C)O (some centres undefined) | 0.008 |
| CC[C@H]1OC(=O)[C@H](C)[C@@H](OC2CC(C)(OC)C(O)C(C)O2)[C@H](C)[C@@H](OC2OC(C)CC(N(C)C)C2O)[C@](C)(O)C[C@@H](C)[C@H](NC2CCCC2)[C@H](C)[C@@H](O)[C@]1(C)O (some centres undefined) | 0.06 |
| CC[C@H]1OC(=O)[C@H](C)[C@@H](OC2CC(C)(OC)C(O)C(C)O2)[C@H](C)[C@@H](OC2OC(C)CC(N(C)C)C2O)[C@](C)(O)C[C@@H](C)[C@H](NCCCCCO)[C@H](C)[C@@H](O)[C@]1(C)O (some centres undefined) | 0.008 |
| CCCCCN[C@@H]1[C@H](C)[C@@H](O)[C@](C)(O)[C@@H](CC)OC(=O)[C@H](C)[C@@H](OC2CC(C)(OC)C(O)C(C)O2)[C@H](C)[C@@H](OC2OC(C)CC(N(C)C)C2O)[C@](C)(O)C[C@H]1C (some centres undefined) | 0.015 |
| CC[C@H]1OC(=O)[C@H](C)[C@@H](OC2CC(C)(OC)C(O)C(C)O2)[C@H](C)[C@@H](OC2OC(C)CC(N(C)C)C2O)[C@](C)(O)C[C@@H](C)[C@H](NCC(C)(C)CO)[C@H](C)[C@@H](O)[C@]1(C)O (some centres undefined) | 0.015 |
| CC[C@H]1OC(=O)[C@H](C)[C@@H](OC2CC(C)(OC)C(O)C(C)O2)[C@H](C)[C@@H](OC2OC(C)CC(N(C)C)C2O)[C@](C)(O)C[C@@H](C)[C@H](N(C)C2CCCCC2)[C@H](C)[C@@H](O)[C@]1(C)O (some centres undefined) | 0.12 |
| CC[C@H]1OC(=O)[C@H](C)[C@@H](OC2CC(C)(OC)C(O)C(C)O2)[C@H](C)[C@@H](OC2OC(C)CC(N(C)C)C2O)[C@](C)(O)C[C@@H](C)[C@H](NCCOCCOC)[C@H](C)[C@@H](O)[C@]1(C)O (some centres undefined) | 0.015 |
| CCCCN[C@@H]1[C@H](C)[C@@H](O)[C@](C)(O)[C@@H](CC)OC(=O)[C@H](C)[C@@H](OC2CC(C)(OC)C(O)C(C)O2)[C@H](C)[C@@H](OC2OC(C)CC(N(C)C)C2O)[C@](C)(O)C[C@H]1C (some centres undefined) | 0.015 |

Let us examine a further case.
[ask] Param item = CCCCCCCCCCN[C@@H]1[C@H](C)[C@@H](O)[C@](C)(O)[C@@H](CC)OC(=O)[C@H](C)[C@@H](OC2CC(C)(OC)C(O)C(C)O2)[C@H](C)[C@@H](OC2OC(C)CC(N(C)C)C2O)[C@](C)(O)C[C@H]1C (some centres undefined) ; retrieve measured MIC.
[reply] 0.015

###

Test system: Streptococcus pyogenes
methodDescription: Effective dose against mice infected with streptococcus pyogenes after peroral administration (in vivo)
Format: functional
testContext: in Mus musculus, po
Could you mark each record y if its ED50 falls strictly under 20 mg/kg, and n if it equals or exceeds it?

| molecule | className |
| --- | --- |
| CC[C@H]1OC(=O)[C@H](C)[C@@H](OC2CC(C)(OC)C(O)C(C)O2)[C@H](C)[C@@H](OC2OC(C)CC(N(C)C)C2O)[C@](C)(O)C[C@@H](C)[C@H](NCCC2=C(C)CCCC2(C)C)[C@H](C)[C@@H](O)[C@]1(C)O (some centres undefined) | n |
| CC[C@H]1OC(=O)[C@H](C)[C@@H](OC2CC(C)(OC)C(O)C(C)O2)[C@H](C)[C@@H](OC2OC(C)CC(N(C)C)C2O)[C@](C)(O)C[C@@H](C)[C@H](NCCCCCO)[C@H](C)[C@@H](O)[C@]1(C)O (some centres undefined) | n |

[ask] Dear colleague, could you confirm whether ED50 of CC[C@H]1OC(=O)[C@H](C)[C@@H](OC2CC(C)(OC)C(O)C(C)O2)[C@H](C)[C@@H](OC2OC(C)CC(N(C)C)C2O)[C@](C)(O)C[C@@H](C)[C@H](NCCOC)[C@H](C)[C@@H](O)[C@]1(C)O (some centres undefined) falls below 20 mg/kg? Thanks.
[reply] y

[ask] Hello, I'm reviewing records and need to know if ED50 of CC[C@H]1OC(=O)[C@H](C)[C@@H](OC2CC(C)(OC)C(O)C(C)O2)[C@H](C)[C@@H](OC2OC(C)CC(N(C)C)C2O)[C@](C)(O)C[C@@H](C)[C@H]2[C@H](C)[C@@H](OCN2C(C)C)[C@]1(C)O (some centres undefined) is below 20 mg/kg. Could you check?
[reply] y

[ask] Just wondering, is ED50 of CC[C@H]1OC(=O)[C@H](C)[C@@H](OC2CC(C)(OC)C(O)C(C)O2)[C@H](C)[C@@H](OC2OC(C)CC(N(C)C)C2O)[C@](C)(O)C[C@@H](C)[C@H](NCCCc2ccccc2)[C@H](C)[C@@H](O)[C@]1(C)O (some centres undefined) below 20 mg/kg?
[reply] y

[ask] For this molecule, is ED50 lower than 20 mg/kg? CC[C@H]1OC(=O)[C@H](C)[C@@H](OC2CC(C)(OC)C(O)C(C)O2)[C@H](C)[C@@H](OC2OC(C)CC(N(C)C)C2O)[C@](C)(O)C[C@@H](C)[C@H](NCCOCCOC)[C@H](C)[C@@H](O)[C@]1(C)O (some centres undefined)
[reply] n

[ask] Is it true that ED50 reported for CC[C@H]1OC(=O)[C@H](C)[C@@H](OC2CC(C)(OC)C(O)C(C)O2)[C@H](C)[C@@H](OC2OC(C)CC(N(C)C)C2O)[C@](C)(O)C[C@@H](C)[C@H](NC(C)CCCN(CC)CC)[C@H](C)[C@@H](O)[C@]1(C)O (some centres undefined) is less than 20 mg/kg?
[reply] n

[ask] Hi there! Is ED50 for CCCCCN[C@@H]1[C@H](C)[C@@H](O)[C@](C)(O)[C@@H](CC)OC(=O)[C@H](C)[C@@H](OC2CC(C)(OC)C(O)C(C)O2)[C@H](C)[C@@H](OC2OC(C)CC(N(C)C)C2O)[C@](C)(O)C[C@H]1C (some centres undefined) below 20 mg/kg, do you know?
[reply] y
